# Test system: TK-10 renal
# ASSAY_SUMMARY: NCI-60 one-dose screen, 48 h
# EXPERIMENTAL_PARAMETERS: 10 µM unless noted
About 83,000 compounds went through this panel and 20% of them were active in at least one assay; those are over-represented in the sample as a whole. Activity calls are given as the source filed them. Rule for the calls: active = growth percent below 10; inactive = the rest.
Pick from active, inactive when you respond.

1) Cc1ccc(S(=O)(=O)Nc2cccc(Cn3c(=O)[nH]c4ccc(Oc5ncccn5)cc4c3=O)c2)cc1 ... inactive
2) CCC(C)C1NC(=O)C(CCCCN)NC(=O)C(CCCCN)NC(=O)C(CC(C)C)NC(=O)C(CCCCN)NC(=O)C(C(C)CC)NC(=O)C(C(C)C)NC(=O)C(C(C)CC)NC(=O)C(CCCCN)NC(=O)C(CCCCN)NC(=O)C(C)NC(=O)C(CCCCN)NC(=O)C(CC(C)C)NC1=O (stereo unspecified) ... inactive
3) C/C(CCC(=O)O)=N/Nc1ccc([N+](=O)[O-])cc1 ... inactive
4) Cc1c(O)c(N=Nc2ccc(C(=O)O)c(O)c2)c2ccccc2c1O ... inactive
5) COc1cc(-c2nn(-c3ccc(NC(=O)Nc4ccc(Cl)c(C(F)(F)F)c4)cc3)cc2-c2ccncc2)ccc1Cl ... active

Which outcome did this test record for the molecule FC(F)(F)c1cccc(-c2[nH]ncc2-c2nnnn2-c2ccccc2)c1 ?
inactive

Dear colleague, could you share the recorded outcome for CCN(CC)CCCC(C)Nc1c(C)cnc2cc(Cl)c(C)cc12 (stereo unspecified) when you have a moment?
inactive

Could you kindly confirm the outcome this assay logged for CCc1ccc(C(=Nc2ccc(N(C)C(=O)CN3CCN(C)CC3)cc2)c2c(O)[nH]c3ccc(C(=O)OC)cc23)cc1 ?
active

# outcome recorded in this test, key = COc1ccc(-c2nnc(SCC(=O)Nc3ccc(C(=O)/C=C/c4cc(OC)c(OC)c(OC)c4)cc3)n2-c2ccccc2)cc1OC
active

----------
# System: CCRF-CEM leukemia
# ASSAY_SUMMARY: NCI-60 one-dose screen, 48 h (100 = growth as untreated, 0 = no growth, -100 = all killed)
# EXPERIMENTAL_PARAMETERS: 10 µM
The panel holds about 83,000 compounds, 20% with a hit somewhere; the sample as a whole holds those more often.
Threshold rule: growth greater than or equal to 50% is condition met; below that, condition not met.

Consider the following illustrative entries.
1. NC(=O)c1c(Nc2ccccc2)nn2cc(-c3nc4ccccc4s3)c(N)nc12 ... condition met
2. CCCCCSc1ccc2nc(NC(=O)OCCC)sc2c1 ... condition not met
3. c1ccc(-c2cn3ccnc3c(-c3ccc4ncn(C5CCCCC5)c4c3)n2)cc1 ... condition not met
4. O=C(Nc1cccc(Cn2c(=O)[nH]c3ccc(Oc4ncccn4)cc3c2=O)c1)c1ccc(Cl)cc1 ... condition not met

# input for lookup
# bool: growth of COC(=O)C(Cc1cnc[nH]1)N1CC(=O)N2[C@@H](c3ccccc3)SC[C@H]2C1=O (stereo not given in full) >= 50%
condition met

----------
# Test system: OVCAR-8 ovarian
# ASSAY_SUMMARY: NCI-60 one-dose screen, 48 h
# EXPERIMENTAL_PARAMETERS: 10 µM unless noted
This is part of a sample that, as a whole, favours compounds with a hit. Of some 83,000 tested, about 20% had one in any assay. Activity calls are given as the source filed them. The calls were made as follows: active = growth percent below 10; inactive = the rest.
A correct response names exactly one class from y for active, n for inactive

For orientation, consider the following solved cases.
1. N=C(N)c1ccc(-c2ccc(-c3ccc(Cl)cc3)s2)s1 ... y
2. Clc1ccc(N/N=C(/c2ccccc2)c2ccccn2)nc1 ... n
3. COc1ccc(Cn2cc3c(c2-c2ccc(OC)cc2)CCc2cnoc2-3)cc1 ... n
4. Nc1nc2cc(O)ccc2n2cc3c(F)cccc3c12 ... n
5. N=C(N)c1ccc(-c2ccc(-c3ccc(F)cc3)s2)cc1 ... y
6. COc1cc2c(c3c1c(=O)c1cccc(F)c1n3C)C=CC(C)(C)O2 ... n

# fetch the recorded call for COC(=O)C(C)[C@H]1CC[C@@H]2[C@]1(C)CC=C1[C@]23C=C[C@]2(C[C@@H](OC(C)=O)CC[C@]12C)C(C(=O)OC)C3C(=O)OC (stereo partly drawn) here
n

I would be grateful if you could indicate the recorded call for Oc1ccc([S+](c2ccc(O)cc2)c2ccc(O)cc2)cc1 .
n

Query: recorded result category for CC[C@H](Nc1ncnc2nc[nH]c12)c1nc2cccc(NCc3ccc(C(=O)NO)o3)c2c(=O)n1-c1ccccc1 in this test
n

Please share the test call associated with O=C(CBr)OCc1ccc([N+](=O)[O-])o1 .
n

Returns: the outcome recorded for CCCCCCCCC(=O)Nc1ccc(O)cc1 in this assay.
n

Just for reference, PubChem BioAssay (NCI) is where these values come from.
